- test-name: Half life (T 1/2) estimated in the absence of light, in 50 mM Tris-HCl 1 mM EDTA (pH 7.4) buffer.
- Format: ADME
- condition-info: 50 mM Tris-HCl 1 mM EDTA buffer
Can you tell me half-life for the items I'm about to list?
Write the answer as a number in h, unit excluded.

For reference, reported half-life for CN(c1ccc([N+]#N)cc1)C1CCC2(O)C3Cc4ccc(O)c5c4C2(CCN3CC2CC2)C1O5 (centres undefined) [NALTREXONEDIAZONIUM] stands at 5

# molecule CC(c1ccc(Cl)cc1)N1CCC2(CC1)C(=O)NCN2c1ccc([N+]#N)cc1 (centres undefined) ; its half-life = 5
